CONDITION_DESCRIPTION: 293.15 K; 101 kPa; Liquid; Capillary tube (Ostwald / Ubbelohde) method
So I've got a bunch of compounds here, and I need their viscosity values.
Response body: numeric value in mPa·s, unit text excluded.

Input: Fill in viscosity for record ClCCCl
Output: 0.827

Input: Fill in viscosity for record BrCCBr
Output: 1.733

Input: Fill in viscosity for record ClC(Cl)=C(Cl)Cl
Output: 0.89

Input: Fill in viscosity for record CCCCCCO
Output: 5.291

====

CONDITION_DESCRIPTION: 298.15 K; 101 kPa; Liquid
So I've got a bunch of molecules here, and I need their mass density values.
Response body: numeric value in kg/m3, unit text excluded.

Input: Fill in mass density for record CCCCCCO
Output: 818.856

Input: Fill in mass density for record ClCCCl
Output: 1252.77

Input: Fill in mass density for record ClC(Cl)=C(Cl)Cl
Output: 1622.74

Input: Fill in mass density for record BrCCBr
Output: 2179.59
